TARGET: Prostaglandin G/H synthase 1 (Homo sapiens, UniProt P23219)
Sequence (P23219 whole entry): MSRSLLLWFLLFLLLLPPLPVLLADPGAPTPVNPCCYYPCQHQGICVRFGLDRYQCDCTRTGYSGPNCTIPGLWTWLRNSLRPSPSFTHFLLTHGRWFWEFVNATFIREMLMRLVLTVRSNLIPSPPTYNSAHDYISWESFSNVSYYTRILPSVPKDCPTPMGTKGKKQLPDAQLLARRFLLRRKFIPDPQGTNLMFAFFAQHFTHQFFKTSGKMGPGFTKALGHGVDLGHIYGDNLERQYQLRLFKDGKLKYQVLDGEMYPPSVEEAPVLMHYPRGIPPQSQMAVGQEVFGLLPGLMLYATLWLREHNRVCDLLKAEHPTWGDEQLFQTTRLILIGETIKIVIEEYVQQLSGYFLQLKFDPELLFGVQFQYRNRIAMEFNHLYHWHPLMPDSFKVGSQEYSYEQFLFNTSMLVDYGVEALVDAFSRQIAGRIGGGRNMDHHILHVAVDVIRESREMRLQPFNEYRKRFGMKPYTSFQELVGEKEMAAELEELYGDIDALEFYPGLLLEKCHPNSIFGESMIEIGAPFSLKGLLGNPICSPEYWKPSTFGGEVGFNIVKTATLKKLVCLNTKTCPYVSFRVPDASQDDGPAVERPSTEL
ASSAY: Percentage of inhibition of Prostaglandin G/H synthase 1 activity in human whole blood (HWB) at 10 uM
Type: tissue-based
EXPERIMENTAL READOUT: inhibition (%)

Answered examples (8):
{"SMILES DATA": "CCOC(=O)c1cnc2c(-c3ccc(F)cc3)c(-c3ccc(S(C)(=O)=O)cc3)nn2c1C", "TARGET": "Prostaglandin G/H synthase 1 (Homo sapiens, UniProt P23219)", "inhibition (%)": 0}
{"SMILES DATA": "Cc1nnc2c(-c3ccc(F)cc3)c(-c3ccc(S(C)(=O)=O)cc3)nn2c1C", "TARGET": "Prostaglandin G/H synthase 1 (Homo sapiens, UniProt P23219)", "inhibition (%)": 1.2}
{"SMILES DATA": "CS(=O)(=O)c1ccc(-c2nn3c4c(cnc3c2-c2ccc(F)cc2)CCCC4)cc1", "TARGET": "Prostaglandin G/H synthase 1 (Homo sapiens, UniProt P23219)", "inhibition (%)": 40.4}
{"SMILES DATA": "Cc1cn2c(-c3ccc(F)cc3)c(-c3ccc(S(C)(=O)=O)cc3)nc2c(C)n1", "TARGET": "Prostaglandin G/H synthase 1 (Homo sapiens, UniProt P23219)", "inhibition (%)": 0}
{"SMILES DATA": "Cc1ccc(-c2c(-c3ccc(S(N)(=O)=O)cc3)nn3c(C)c(C)cnc23)cc1", "TARGET": "Prostaglandin G/H synthase 1 (Homo sapiens, UniProt P23219)", "inhibition (%)": 33.5}
{"SMILES DATA": "CS(=O)(=O)c1ccc(-c2nn3c4c(cnc3c2-c2ccc(F)cc2)CCC4)cc1", "TARGET": "Prostaglandin G/H synthase 1 (Homo sapiens, UniProt P23219)", "inhibition (%)": 0}
{"SMILES DATA": "Cc1cc(C)n2nc(-c3ccc(S(C)(=O)=O)cc3)c(-c3ccc(F)cc3)c2n1", "TARGET": "Prostaglandin G/H synthase 1 (Homo sapiens, UniProt P23219)", "inhibition (%)": 8.3}
{"SMILES DATA": "Cc1nc2c(-c3ccc(F)cc3)c(-c3ccc(S(C)(=O)=O)cc3)nn2c(C)c1C", "TARGET": "Prostaglandin G/H synthase 1 (Homo sapiens, UniProt P23219)", "inhibition (%)": 61.3}

(A) Cc1cnc2c(-c3ccc(F)cc3)c(-c3ccc(S(C)(=O)=O)cc3)nn2c1
(B) Cc1c(Br)cnc2c(-c3ccc(F)cc3)c(-c3ccc(S(C)(=O)=O)cc3)nn12
Consider A and B . Which of these has its inhibition at a higher number? Which one? Tell me its label.
B
(B: 83.8%, A: 8.2%)

====

TARGET: Prostaglandin G/H synthase 2 (Homo sapiens) (UniProt P35354)
Sequence (P35354 whole entry): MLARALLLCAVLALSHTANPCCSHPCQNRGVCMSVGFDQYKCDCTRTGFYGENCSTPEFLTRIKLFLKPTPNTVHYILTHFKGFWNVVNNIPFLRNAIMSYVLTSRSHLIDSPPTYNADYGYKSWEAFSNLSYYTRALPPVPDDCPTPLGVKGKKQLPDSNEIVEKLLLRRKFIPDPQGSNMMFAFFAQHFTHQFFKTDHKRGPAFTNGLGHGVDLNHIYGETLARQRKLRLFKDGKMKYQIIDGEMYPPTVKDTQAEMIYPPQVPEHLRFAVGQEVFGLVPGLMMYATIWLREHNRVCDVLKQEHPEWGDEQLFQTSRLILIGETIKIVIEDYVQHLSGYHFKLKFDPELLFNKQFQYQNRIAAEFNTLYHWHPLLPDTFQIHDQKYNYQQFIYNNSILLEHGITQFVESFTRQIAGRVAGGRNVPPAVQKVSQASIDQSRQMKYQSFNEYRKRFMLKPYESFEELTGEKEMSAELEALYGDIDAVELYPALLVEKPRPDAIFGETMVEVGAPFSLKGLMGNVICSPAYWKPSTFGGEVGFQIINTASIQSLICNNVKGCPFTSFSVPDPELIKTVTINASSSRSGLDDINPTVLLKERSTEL
ASSAY: Percentage inhibition of Prostaglandin G/H synthase 2 activity in human whole blood (HWB) at 10 uM
Type: tissue-based
EXPERIMENTAL READOUT: inhibition (%)

{"SMILES DATA": "Cc1cnc2c(-c3ccc(F)cc3F)c(-c3ccc(S(C)(=O)=O)cc3)nn2c1C", "inhibition / %": 100}
{"SMILES DATA": "Cc1c(C(F)(F)F)cnc2c(-c3ccc(F)cc3)c(-c3ccc(S(C)(=O)=O)cc3)nn12", "inhibition / %": 100}
{"SMILES DATA": "CCCc1cnnc2c(-c3ccc(F)cc3)c(-c3ccc(S(C)(=O)=O)cc3)nn12", "inhibition / %": 100}
{"SMILES DATA": "Cc1c(C(=O)O)cnc2c(-c3ccc(F)cc3)c(-c3ccc(S(C)(=O)=O)cc3)nn12", "inhibition / %": 56.3}
{"SMILES DATA": "CCc1c(C)cnc2c(-c3ccc(F)cc3)c(-c3ccc(S(C)(=O)=O)cc3)nn12", "inhibition / %": 100}
{"SMILES DATA": "Cc1c(CO)cnc2c(-c3ccc(F)cc3)c(-c3ccc(S(C)(=O)=O)cc3)nn12", "inhibition / %": 77.7}
